molecular target: HIV-1 protease (Human immunodeficiency virus type 1 group M subtype B); test: biochemical; conditions: read-out: HIV-1 Protease % Inhib, dose 10.000 uM

{"molecule": "O=c1oc2c(c(O)c1C(c1cccc(NS(=O)(=O)c3ccc4ccccc4c3)c1)C1CC1)CCCCCC2 (stereo not shown) [Example 266]", "target-or-test-system": "HIV-1 protease (Human immunodeficiency virus type 1 group M subtype B)", "inhibition at 10 µM": "105%"}
{"molecule": "O=c1oc2c(c(O)c1C(c1cccc(NS(=O)(=O)c3cccc(S(=O)(=O)NCc4ccccc4)c3)c1)C1CC1)CCCCCC2 (stereo not shown) [Example 412]", "target-or-test-system": "HIV-1 protease (Human immunodeficiency virus type 1 group M subtype B)", "inhibition at 10 µM": "99%"}
{"molecule": "CC(C)(C)OC(=O)N[C@@H](Cc1c[nH]cn1)C(=O)Nc1cccc(C(c2c(O)c3c(oc2=O)CCCCCC3)C2CC2)c1 (stereo partly shown) [Example 213]", "target-or-test-system": "HIV-1 protease (Human immunodeficiency virus type 1 group M subtype B)", "inhibition at 10 µM": "109%"}
{"molecule": "O=c1oc2c(c(O)c1C(c1cccc(NS(=O)(=O)c3cccnc3)c1)C1CC1)CCCCCC2 (stereo not shown) [Example 314]", "target-or-test-system": "HIV-1 protease (Human immunodeficiency virus type 1 group M subtype B)", "inhibition at 10 µM": "102%"}
{"molecule": "CCC(c1ccccc1)c1c(O)c2ccc(C)cc2oc1=O (stereo not shown) [Example 90]", "target-or-test-system": "HIV-1 protease (Human immunodeficiency virus type 1 group M subtype B)", "inhibition at 10 µM": "29.7%"}
{"molecule": "O=c1oc2c(c(O)c1C(c1ccccc1)C1CC1)CCCCC2 (stereo not shown) [Example 112]", "target-or-test-system": "HIV-1 protease (Human immunodeficiency virus type 1 group M subtype B)", "inhibition at 10 µM": "102%"}
{"molecule": "CCC(c1cccc(NS(=O)(=O)CCN2C(=O)c3ccccc3C2=O)c1)c1c(O)c2ccccc2oc1=O (stereo not shown) [Example 139]", "target-or-test-system": "HIV-1 protease (Human immunodeficiency virus type 1 group M subtype B)", "inhibition at 10 µM": "80.7%"}
{"molecule": "O=c1oc2c(c(O)c1C(c1cccc(NS(=O)(=O)c3ccc(F)cc3F)c1)C1CC1)CCCCCC2 (stereo not shown) [Example 279]", "target-or-test-system": "HIV-1 protease (Human immunodeficiency virus type 1 group M subtype B)", "inhibition at 10 µM": "109%"}
{"molecule": "O=C1c2ccccc2C(=O)N1CCS(=O)(=O)Nc1cccc(C(c2c(O)c3c(oc2=O)CCCCCC3)C2CC2)c1 (stereo not shown) [Example 327]", "target-or-test-system": "HIV-1 protease (Human immunodeficiency virus type 1 group M subtype B)", "inhibition at 10 µM": "106%"}
{"molecule": "CC(c1cccc(C(=O)NCc2ccccn2)c1)c1c(O)c2ccccc2oc1=O (stereo not shown) [Example 27]", "target-or-test-system": "HIV-1 protease (Human immunodeficiency virus type 1 group M subtype B)", "inhibition at 10 µM": "< 10%"}
{"molecule": "CCC(c1ccc(Br)cc1)c1c(O)c2ccccc2oc1=O (stereo not shown) [Example 91]", "target-or-test-system": "HIV-1 protease (Human immunodeficiency virus type 1 group M subtype B)", "inhibition at 10 µM": "38.4%"}
{"molecule": "CCCC(Cc1ccccc1)c1c(O)c2ccccc2oc1=O (stereo not shown) [Example 147]", "target-or-test-system": "HIV-1 protease (Human immunodeficiency virus type 1 group M subtype B)", "inhibition at 10 µM": "86.3%"}
{"molecule": "CCC(c1cccc(NC(=O)CC[C@H](NC(=O)OC(C)(C)C)C(=O)OC(C)(C)C)c1)c1c(O)c2ccccc2oc1=O (stereo partly shown) [Example 51]", "target-or-test-system": "HIV-1 protease (Human immunodeficiency virus type 1 group M subtype B)", "inhibition at 10 µM": "< 10%"}
{"molecule": "C[C@H](NC(=O)OC(C)(C)C)C(=O)Nc1cccc(C(c2c(O)c3c(oc2=O)CCCCCC3)C2CC2)c1 (stereo partly shown) [Example 198]", "target-or-test-system": "HIV-1 protease (Human immunodeficiency virus type 1 group M subtype B)", "inhibition at 10 µM": "115%"}
{"molecule": "CCc1ccc(S(=O)(=O)Nc2cccc(C(c3c(O)c4c(oc3=O)CCCCCC4)C3CC3)c2)cc1 (stereo not shown) [Example 341]", "target-or-test-system": "HIV-1 protease (Human immunodeficiency virus type 1 group M subtype B)", "inhibition at 10 µM": "120%"}
{"molecule": "O=C(Nc1cccc(S(=O)(=O)Nc2cccc(C(c3c(O)c4c(oc3=O)CCCCCC4)C3CC3)c2)c1)c1ccccc1 (stereo not shown) [Example 351]", "target-or-test-system": "HIV-1 protease (Human immunodeficiency virus type 1 group M subtype B)", "inhibition at 10 µM": "97.8%"}
